target desc: Voltage-dependent N-type calcium channel subunit alpha-1B (Homo sapiens, UniProt Q00975)
Sequence (Q00975 whole entry): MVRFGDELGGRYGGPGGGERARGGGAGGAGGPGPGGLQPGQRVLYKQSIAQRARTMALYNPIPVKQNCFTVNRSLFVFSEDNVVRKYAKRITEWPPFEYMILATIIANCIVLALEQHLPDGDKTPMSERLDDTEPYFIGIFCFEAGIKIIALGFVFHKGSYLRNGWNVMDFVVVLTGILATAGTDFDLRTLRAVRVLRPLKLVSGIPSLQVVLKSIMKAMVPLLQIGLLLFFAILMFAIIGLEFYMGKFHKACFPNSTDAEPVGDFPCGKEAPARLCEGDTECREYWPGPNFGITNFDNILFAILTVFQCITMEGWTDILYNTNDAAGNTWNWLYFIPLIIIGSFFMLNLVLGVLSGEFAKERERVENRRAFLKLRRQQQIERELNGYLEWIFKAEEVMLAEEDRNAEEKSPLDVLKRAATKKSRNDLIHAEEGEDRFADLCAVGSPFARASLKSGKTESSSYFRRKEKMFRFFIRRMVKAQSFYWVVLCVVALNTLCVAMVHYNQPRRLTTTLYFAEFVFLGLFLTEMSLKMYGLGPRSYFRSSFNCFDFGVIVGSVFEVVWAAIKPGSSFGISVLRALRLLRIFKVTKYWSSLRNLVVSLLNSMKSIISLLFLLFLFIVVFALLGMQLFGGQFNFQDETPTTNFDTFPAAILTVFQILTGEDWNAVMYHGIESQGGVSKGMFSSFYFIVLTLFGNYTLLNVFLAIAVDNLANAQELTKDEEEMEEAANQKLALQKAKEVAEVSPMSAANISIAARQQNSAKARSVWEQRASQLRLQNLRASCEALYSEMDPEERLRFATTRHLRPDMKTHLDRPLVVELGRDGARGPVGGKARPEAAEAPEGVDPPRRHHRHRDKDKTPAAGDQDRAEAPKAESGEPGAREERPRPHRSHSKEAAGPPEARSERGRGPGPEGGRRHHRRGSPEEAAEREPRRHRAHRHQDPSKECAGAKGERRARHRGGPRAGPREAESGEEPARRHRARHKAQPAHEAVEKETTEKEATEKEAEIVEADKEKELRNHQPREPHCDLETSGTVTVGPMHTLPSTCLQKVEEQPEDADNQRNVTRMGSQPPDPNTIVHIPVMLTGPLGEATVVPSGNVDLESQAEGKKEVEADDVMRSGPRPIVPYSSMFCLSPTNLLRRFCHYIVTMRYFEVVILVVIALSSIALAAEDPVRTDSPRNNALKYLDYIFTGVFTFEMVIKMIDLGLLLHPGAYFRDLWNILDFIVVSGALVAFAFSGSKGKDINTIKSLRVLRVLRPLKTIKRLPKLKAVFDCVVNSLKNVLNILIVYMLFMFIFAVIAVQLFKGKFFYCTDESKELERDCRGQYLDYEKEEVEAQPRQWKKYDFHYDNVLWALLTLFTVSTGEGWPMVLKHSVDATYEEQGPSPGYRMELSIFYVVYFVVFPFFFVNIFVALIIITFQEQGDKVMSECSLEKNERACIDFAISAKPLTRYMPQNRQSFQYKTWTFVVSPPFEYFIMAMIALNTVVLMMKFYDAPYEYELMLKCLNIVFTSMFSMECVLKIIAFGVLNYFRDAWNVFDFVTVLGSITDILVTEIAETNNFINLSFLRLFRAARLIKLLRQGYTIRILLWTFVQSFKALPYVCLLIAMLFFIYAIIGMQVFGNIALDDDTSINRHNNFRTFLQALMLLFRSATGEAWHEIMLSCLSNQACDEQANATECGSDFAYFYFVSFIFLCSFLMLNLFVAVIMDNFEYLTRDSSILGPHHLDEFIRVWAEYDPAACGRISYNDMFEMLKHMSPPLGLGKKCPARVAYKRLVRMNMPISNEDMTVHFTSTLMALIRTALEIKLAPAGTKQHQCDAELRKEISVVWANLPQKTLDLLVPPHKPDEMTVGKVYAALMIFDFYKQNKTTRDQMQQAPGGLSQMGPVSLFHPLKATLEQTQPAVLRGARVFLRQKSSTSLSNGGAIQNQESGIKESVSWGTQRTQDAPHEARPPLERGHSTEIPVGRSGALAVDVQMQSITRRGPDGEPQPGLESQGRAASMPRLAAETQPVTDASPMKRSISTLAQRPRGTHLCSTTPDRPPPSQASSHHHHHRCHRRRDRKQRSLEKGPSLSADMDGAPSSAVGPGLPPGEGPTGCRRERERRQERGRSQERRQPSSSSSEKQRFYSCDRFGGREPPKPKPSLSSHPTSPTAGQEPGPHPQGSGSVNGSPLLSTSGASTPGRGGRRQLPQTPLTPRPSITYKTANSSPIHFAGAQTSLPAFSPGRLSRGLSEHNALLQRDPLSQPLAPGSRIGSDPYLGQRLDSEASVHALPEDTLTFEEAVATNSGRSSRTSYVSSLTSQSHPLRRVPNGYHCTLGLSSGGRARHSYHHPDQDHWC
assay protocol: In vitro N-type [Ca2+] channel blocking potency in IMR-32 human neuroblastoma cells
assay endpoint: IC50 (nM)

Some solved entries appear below for comparison.
CC(C)CCN(C)[C@H](C(=O)N[C@@H](Cc1ccc(OC(=O)c2ccccc2)cc1)C(=O)NC(C)(C)C)C(C)C :: 830
CC(C)CCN1CCCCC1C(=O)N[C@@H](Cc1ccc(OC(=O)c2ccccc2)cc1)C(=O)OC(C)(C)C (stereo partly drawn) :: 1000
CC(C)CCN1CCN(C)CC1C(=O)N[C@@H](Cc1ccc(OC(=O)c2ccccc2)cc1)C(=O)OC(C)(C)C (stereo partly drawn) :: 1000

(a) CC(C)CCN[C@@H](CC(C)C)C(=O)N[C@@H](Cc1ccc(OC(=O)c2ccccc2)cc1)C(=O)OC(C)(C)C
(b) CC(C)CCN1CCCC(C)C1C(=O)N[C@@H](Cc1ccc(OC(=O)c2ccccc2)cc1)C(=O)OC(C)(C)C (stereo partly drawn)
Query string: Sorting ascending by IC50, which comes first: a or b ? Response format: the label of the selected entry.
Result string: a
(a: 400 nM, b: 1100 nM)

(P) CC(C)CCN1CCC(C)CC1C(=O)N[C@@H](Cc1ccc(OC(=O)c2ccccc2)cc1)C(=O)OC(C)(C)C (stereo partly drawn)
(Q) CC(C)CCN(C)CC(=O)N[C@@H](Cc1ccc(OC(=O)c2ccccc2)cc1)C(=O)NC(C)(C)C
(R) CC(C)CCN[C@@H](CC(C)C)C(=O)N[C@@H](Cc1ccc(OC(=O)c2ccccc2)cc1)C(=O)NC(C)(C)C
Query string: Please give the order of these compounds when sorted by IC50, largest value leading. Your task in answering is to list the labels in the requested order.
Result string: Q, P, R
(Q: 1600 nM, P: 780 nM, R: 300 nM)
